All values here come from paper PMC7515702.

- experimental.target: PARP1 H862A H862A (UniProt P09874)
- Sequence (P09874 whole entry H862A): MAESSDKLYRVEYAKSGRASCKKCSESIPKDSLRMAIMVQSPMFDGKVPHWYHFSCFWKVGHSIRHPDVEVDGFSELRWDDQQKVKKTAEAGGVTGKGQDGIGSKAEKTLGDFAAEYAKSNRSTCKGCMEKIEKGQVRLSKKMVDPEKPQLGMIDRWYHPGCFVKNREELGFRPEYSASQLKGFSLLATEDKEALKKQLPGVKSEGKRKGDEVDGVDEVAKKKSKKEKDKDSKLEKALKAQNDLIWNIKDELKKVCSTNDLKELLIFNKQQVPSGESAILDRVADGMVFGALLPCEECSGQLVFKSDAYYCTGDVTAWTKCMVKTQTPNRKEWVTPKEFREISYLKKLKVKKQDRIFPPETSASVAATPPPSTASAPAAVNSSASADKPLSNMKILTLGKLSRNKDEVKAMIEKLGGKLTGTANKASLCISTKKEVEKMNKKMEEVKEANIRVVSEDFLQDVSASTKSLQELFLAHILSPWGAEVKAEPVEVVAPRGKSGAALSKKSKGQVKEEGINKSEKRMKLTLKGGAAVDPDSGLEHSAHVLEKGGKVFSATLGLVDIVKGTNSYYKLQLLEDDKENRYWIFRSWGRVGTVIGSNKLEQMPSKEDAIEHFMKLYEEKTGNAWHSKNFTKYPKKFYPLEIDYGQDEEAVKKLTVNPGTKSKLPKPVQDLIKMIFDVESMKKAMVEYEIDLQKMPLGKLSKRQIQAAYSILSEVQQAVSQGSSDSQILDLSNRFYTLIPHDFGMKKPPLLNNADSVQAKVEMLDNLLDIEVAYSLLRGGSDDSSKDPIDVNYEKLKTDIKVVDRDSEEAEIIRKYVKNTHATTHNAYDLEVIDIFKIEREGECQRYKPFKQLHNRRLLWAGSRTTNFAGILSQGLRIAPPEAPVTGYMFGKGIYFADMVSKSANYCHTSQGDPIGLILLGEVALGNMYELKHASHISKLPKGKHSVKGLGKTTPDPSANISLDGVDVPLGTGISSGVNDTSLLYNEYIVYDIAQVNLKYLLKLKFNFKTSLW
- protocol.summary: fluorescence polarization
- test.context: no NAD+, 250 mM NaCl; Kd: 5 nM probe, 12 mM HEPES pH 8.0, 250 mM NaCl, 4% glycerol, 5.7 mM beta-mercaptoethanol, 0.05 mg/ml BSA, 30 min RT. Competition: 40 nM PARP1, 20 nM probe …
test.readout: Kd (nM)
One number for each entry, in nM.

API: value(readout= Kd, system= PARP1 H862A H862A (UniProt P09874), query= GCTGAGCTTCTGGTGAAGCTCAGCTCGCGGCAGCTGGTGCTGCCGCGA [nicked dumbbell DNA (SSB probe)] )
176

====

- experimental.target: PARP1 WT (UniProt P09874)
- Sequence (P09874 whole entry): as the sequence (P09874 whole entry H862A) above, with A862H counted along it
- protocol.summary: fluorescence polarization
- test.context: no NAD+, 250 mM NaCl; Kd: 5 nM probe, 12 mM HEPES pH 8.0, 250 mM NaCl, 4% glycerol, 5.7 mM beta-mercaptoethanol, 0.05 mg/ml BSA, 30 min RT. Competition: 40 nM PARP1, 20 nM probe …
test.readout: pKd
One number for each entry, as −log10 of the molar value.

# pKd lookup, item GCTGAGCTTCTGGTGAAGCTCAGCTCGCGGCAGCTGGTGCTGCCGCGA [nicked dumbbell DNA (SSB probe)]
6.91
